# target: Protein cereblon/Bromodomain-containing protein 4 (Homo sapiens, UniProt O60885+Q96SW2)
# Sequence (Q96SW2 whole entry, looked up, other chains not shown): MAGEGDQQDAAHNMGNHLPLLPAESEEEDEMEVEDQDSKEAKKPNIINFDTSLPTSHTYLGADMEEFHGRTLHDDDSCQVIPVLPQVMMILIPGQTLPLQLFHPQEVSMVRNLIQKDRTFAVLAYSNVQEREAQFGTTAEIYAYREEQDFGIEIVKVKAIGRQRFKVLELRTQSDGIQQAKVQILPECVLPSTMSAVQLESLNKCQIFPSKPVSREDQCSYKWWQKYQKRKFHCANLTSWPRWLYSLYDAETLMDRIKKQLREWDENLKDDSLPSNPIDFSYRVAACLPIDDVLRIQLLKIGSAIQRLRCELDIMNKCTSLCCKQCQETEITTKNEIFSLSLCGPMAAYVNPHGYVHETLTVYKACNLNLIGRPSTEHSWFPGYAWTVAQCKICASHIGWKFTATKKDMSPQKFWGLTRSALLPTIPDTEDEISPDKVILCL
# protocol text: PROTAC activity at CRBN/BRD4 in human MOLM-13 cells assessed as BRD4 degradation at 1 uM incubated for 24 hrs by Western blot analysis
# Format: cell-based
Active and inactive are the calls of the source. The rule behind the calls is not given here.
measure name: Activity

| compound | result |
| --- | --- |
| Cc1sc2c(c1C)C(c1ccc(Cl)cc1)=N[C@@H](CC(=O)N1CCN(C3CCN(c4cccc5c4C(=O)N(C4CCC(=O)NC4=O)C5=O)CC3)CC1)c1nnc(C)n1-2 (stereo partly drawn) | Active |
| Cc1sc2c(c1C)C(c1ccc(Cl)cc1)=N[C@@H](CC(=O)N1CC(CN3CCN(c4ccc5c(c4)C(=O)N(C4CCC(=O)NC4=O)C5=O)CC3)C1)c1nnc(C)n1-2 (stereo partly drawn) | Active |
| O=C1CCC(N2Cc3cc(CNC(=O)C(F)(F)c4ccc(Cl)cc4)ccc3C2=O)C(=O)N1 (stereo not drawn) | Active |

====

# Tested on: OCI-AML-3
# protocol text: Antiproliferative activity against human OCI-AML-3 cells incubated for 3 days by CCK8 assay
# Type: functional, cell-based
# protocol conditions: Homo sapiens, OCI-AML-3, 72 h
Documented pIC50 across a set of compounds
Bear in mind: pIC50 is minus log10 of a mol/L concentration; give just that figure.

Some solved cases for reference:
| compound | measured number |
| --- | --- |
| Cc1sc2c(c1C)C(c1ccc(Cl)cc1)=N[C@@H](CC(=O)NCCNc1cccc3c1C(=O)N(C1CCC(=O)NC1=O)C3=O)c1nnc(C)n1-2 (some centres not stated) | 6.49 |
| Cc1sc2c(c1C)C(c1ccc(Cl)cc1)=N[C@@H](CC(=O)N1CCN(CC3CN(c4cccc5c4C(=O)N(C4CCC(=O)NC4=O)C5=O)C3)CC1)c1nnc(C)n1-2 (some centres not stated) | 7.12 |

QUERY: Form: Entry = Cc1sc2c(c1C)C(c1ccc(Cl)cc1)=N[C@@H](CC(=O)NCCCCNc1cccc3c1C(=O)N(C1CCC(=O)NC1=O)C3=O)c1nnc(C)n1-2 (some centres not stated) | System = OCI-AML-3 | pIC50 = ____
RESULT: 5.92

QUERY: Please give the result for Cc1sc2c(c1C)C(c1ccc(Cl)cc1)=N[C@@H](CC(=O)N1CCN(CC3CN(c4ccc5c(c4)C(=O)N(C4CCC(=O)NC4=O)C5=O)C3)CC1)c1nnc(C)n1-2 (some centres not stated) too.
RESULT: 7.56

QUERY: Please give the result for Cc1sc2c(c1C)C(c1ccc(Cl)cc1)=N[C@@H](CC(=O)N1CCN(C3CCN(c4ccc5c(c4)C(=O)N(C4CCC(=O)NC4=O)C5=O)CC3)CC1)c1nnc(C)n1-2 (some centres not stated) too.
RESULT: 7.76

QUERY: Please give the result for Cc1sc2c(c1C)C(c1ccc(Cl)cc1)=N[C@@H](CC(=O)N1CCN(CC3CCN(c4ccc5c(c4)C(=O)N(C4CCC(=O)NC4=O)C5=O)CC3)CC1)c1nnc(C)n1-2 (some centres not stated) too.
RESULT: 7.84

====

Documented pIC50 across a set of molecules
# Test system: MOLM-13
# protocol text: Antiproliferative activity against human MOLM-13 cells incubated for 3 days by CCK8 assay
# Type: functional, cell-based
# protocol conditions: MOLM-13, 72 h
Bear in mind: pIC50 is minus log10 of a mol/L concentration; give just that figure.

Some solved cases for reference:
| molecule | target | pIC50 |
| --- | --- | --- |
| Cc1sc2c(c1C)C(c1ccc(Cl)cc1)=N[C@@H](CC(=O)NCCNc1cccc3c1C(=O)N(C1CCC(=O)NC1=O)C3=O)c1nnc(C)n1-2 (some centres undefined) | MOLM-13 | 6.82 |
| Cc1sc2c(c1C)C(c1ccc(Cl)cc1)=N[C@@H](CC(=O)N1CCN(C3CCN(c4cccc5c4C(=O)N(C4CCC(=O)NC4=O)C5=O)CC3)CC1)c1nnc(C)n1-2 (some centres undefined) | MOLM-13 | 7.43 |
| Cc1sc2c(c1C)C(c1ccc(Cl)cc1)=N[C@@H](CC(=O)N1CCN(CC3CCN(c4ccc5c(c4)C(=O)N(C4CCC(=O)NC4=O)C5=O)CC3)CC1)c1nnc(C)n1-2 (some centres undefined) | MOLM-13 | 8.07 |
| Cc1sc2c(c1C)C(c1ccc(Cl)cc1)=N[C@@H](CC(=O)N1CCN(C3CCN(c4ccc5c(c4)C(=O)N(C4CCC(=O)NC4=O)C5=O)CC3)CC1)c1nnc(C)n1-2 (some centres undefined) | MOLM-13 | 8.22 |
| Cc1sc2c(c1C)C(c1ccc(Cl)cc1)=N[C@@H](CC(=O)N1CCN(CC3CCN(c4cccc5c4C(=O)N(C4CCC(=O)NC4=O)C5=O)CC3)CC1)c1nnc(C)n1-2 (some centres undefined) | MOLM-13 | 7.33 |

QUERY: Value lookup for pIC50; key = Cc1sc2c(c1C)C(c1ccc(Cl)cc1)=N[C@@H](CC(=O)N1CCC(N3CCN(c4ccc5c(c4)C(=O)N(C4CCC(=O)NC4=O)C5=O)CC3)CC1)c1nnc(C)n1-2 (some centres undefined)
RESULT: 7.59

QUERY: Please give the result for O=C1CCC(N2Cc3cc(CNC(=O)C(F)(F)c4ccc(Cl)cc4)ccc3C2=O)C(=O)N1 (centres undefined) too.
RESULT: 6.74

QUERY: Please give the result for Cc1sc2c(c1C)C(c1ccc(Cl)cc1)=N[C@@H](CC(=O)N1CCN(CC3CN(c4cccc5c4C(=O)N(C4CCC(=O)NC4=O)C5=O)C3)CC1)c1nnc(C)n1-2 (some centres undefined) too.
RESULT: 7.83

QUERY: Please give the result for Cc1sc2c(c1C)C(c1ccc(Cl)cc1)=N[C@@H](CC(=O)N1CCN(CC3CN(c4ccc5c(c4)C(=O)N(C4CCC(=O)NC4=O)C5=O)C3)CC1)c1nnc(C)n1-2 (some centres undefined) too.
RESULT: 7.87

====

# target: Protein cereblon/Bromodomain-containing protein 4 (Homo sapiens, UniProt O60885+Q96SW2)
# protocol text: PROTAC activity at CRBN/BRD4 in human MOLM-13 cells assessed as BRD4 degradation at 1 uM incubated for 24 hrs by Western blot analysis
# Format: cell-based
Calls of active or inactive are those of the source. The rule behind the calls is not given here.
measure name: Activity

| molecule | result |
| --- | --- |
| Cc1sc2c(c1C)C(c1ccc(Cl)cc1)=N[C@@H](CC(=O)N1CCN(C3CN(c4ccc5c(c4)C(=O)N(C4CCC(=O)NC4=O)C5=O)C3)CC1)c1nnc(C)n1-2 (stereo partly drawn) | Active |
| Cc1sc2c(c1C)C(c1ccc(Cl)cc1)=N[C@@H](CC(=O)N1CCN(CC3CN(c4cccc5c4C(=O)N(C4CCC(=O)NC4=O)C5=O)C3)CC1)c1nnc(C)n1-2 (stereo partly drawn) | Active |
| Cc1sc2c(c1C)C(c1ccc(Cl)cc1)=N[C@@H](CC(=O)N1CCN(CC3CCN(c4cccc5c4C(=O)N(C4CCC(=O)NC4=O)C5=O)CC3)CC1)c1nnc(C)n1-2 (stereo partly drawn) | Active |

====

# System: THP-1
# protocol text: Antiproliferative activity against human THP-1 cells incubated for 3 days by CCK8 assay
# Assay type: functional, cell-based
# protocol conditions: THP-1, 72 h
measure name: IC50
Just so you know, I need the unit written after the number.

Some solved cases for reference:
| compound | measure name | result |
| --- | --- | --- |
| Cc1sc2c(c1C)C(c1ccc(Cl)cc1)=N[C@@H](CC(=O)N1CCN(CC3CN(c4ccc5c(c4)C(=O)N(C4CCC(=O)NC4=O)C5=O)C3)CC1)c1nnc(C)n1-2 (stereo not given in full) | IC50 | 32 nM |
| Cc1sc2c(c1C)C(c1ccc(Cl)cc1)=N[C@@H](CC(=O)NCCNc1cccc3c1C(=O)N(C1CCC(=O)NC1=O)C3=O)c1nnc(C)n1-2 (stereo not given in full) | IC50 | 553 nM |
| Cc1sc2c(c1C)C(c1ccc(Cl)cc1)=N[C@@H](CC(=O)N1CCN(CC3CN(c4cccc5c4C(=O)N(C4CCC(=O)NC4=O)C5=O)C3)CC1)c1nnc(C)n1-2 (stereo not given in full) | IC50 | 103 nM |

QUERY: Value lookup for IC50; key = Cc1sc2c(c1C)C(c1ccc(Cl)cc1)=N[C@@H](CC(=O)N1CCN(C3CCN(c4ccc5c(c4)C(=O)N(C4CCC(=O)NC4=O)C5=O)CC3)CC1)c1nnc(C)n1-2 (stereo not given in full)
RESULT: 16.4 nM

QUERY: Please give the result for Cc1sc2c(c1C)C(c1ccc(Cl)cc1)=N[C@@H](CC(=O)N1CCN(CC3CCN(c4ccc5c(c4)C(=O)N(C4CCC(=O)NC4=O)C5=O)CC3)CC1)c1nnc(C)n1-2 (stereo not given in full) too.
RESULT: 18 nM

====

# Tested on: KARPAS-299
# protocol text: Antiproliferative activity against human KARPAS-299 cells incubated for 3 days by CCK8 assay
# Assay type: functional, cell-based
# protocol conditions: karpas-299
measure name: pIC50
Bear in mind: pIC50 is minus log10 of a mol/L concentration; give just that figure.

QUERY: Value lookup for pIC50; key = Cc1sc2c(c1C)C(c1ccc(Cl)cc1)=N[C@@H](CC(=O)NCCNc1cccc3c1C(=O)N(C1CCC(=O)NC1=O)C3=O)c1nnc(C)n1-2 (stereo partly specified)
RESULT: 6.04
